Test system: morningglory
Assay: Test B pre/postemergence morningglory
Type: in vivo, Ipomoea hederacea
Conditions: Preemergence, Rate 125 g/ha; scale of 0 to 10 where 0 is no effect and 10 is complete control

{"columns": ["compound", "Morningglory plant response rating"],
 "data": [
  ["COC(C)n1c(=O)on(C(=O)N(c2ccc(F)cc2F)C(C)C)c1=O (centres unmarked) [Compound 593]", 0],
  ["CCCCCCn1c(=O)on(C(=O)N(c2ccc(F)cc2F)C(C)C)c1=O [Compound 637]", 0],
  ["C=C(Cl)Cn1c(=O)on(C(=O)N(c2ccccc2)C(C)C)c1=O [Compound 608]", 0],
  ["CC(C)N(C(=O)n1oc(=O)n(CC(=O)C2CCC2)c1=O)c1ccc(F)cc1F [Compound 642]", 0],
  ["CC(C)N(C(=O)n1oc(=O)n(C(C)CBr)c1=O)c1ccc(F)cc1F (centres unmarked) [Compound 594]", 0]
]}

----------
Test system: sugar beet
Experiment: Test B pre/postemergence sugar beet
Type: in vivo, Beta vulgaris
Conditions: Rate 125 g/ha; Preemergence; scale of 0 to 10 where 0 is no effect and 10 is complete control
quantity.kind: Sugarbeets plant response rating

{"columns": ["compound", "quantity.kind", "result"],
 "data": [
  ["Cc1ccccc1-n1c(=O)on(C(=O)N(c2ccc(Oc3ccccc3)cc2)C(C)C)c1=O", "Sugarbeets plant response rating", 0],
  ["Cc1ccccc1-n1c(=O)on(C(=O)N(c2ccc(C(C)C)cc2)C(C)C)c1=O", "Sugarbeets plant response rating", 0],
  ["C=CCCCn1c(=O)on(C(=O)N(c2ccc(F)cc2)C(C)C)c1=O", "Sugarbeets plant response rating", 0],
  ["CC(C)N(C(=O)n1oc(=O)n(CCCCF)c1=O)c1ccc(F)cc1", "Sugarbeets plant response rating", 6],
  ["CC1Cc2cccc(-n3c(=O)on(C(=O)N(c4ccc(F)cc4)C(C)C)c3=O)c2O1 (centres unmarked)", "Sugarbeets plant response rating", 0]
]}

----------
Tested on: pigweed
Experiment: Test B pre/postemergence pigweed
Format: in vivo, Amaranthus retroflexus
Conditions: Rate 62 g/ha, Postemergence; scale of 0 to 10 where 0 is no effect and 10 is complete control
quantity.kind: Redroot pigweed plant response rating

{"columns": ["molecule", "quantity.kind", "result"],
 "data": [
  ["CC1CC1n1c(=O)on(C(=O)N(c2ccc(F)cc2)C(C)C)c1=O (stereo not shown)", "Redroot pigweed plant response rating", 0],
  ["Cc1nc(C)c(-n2c(=O)on(C(=O)N(c3ccc(F)cc3)C(C)C)c2=O)s1", "Redroot pigweed plant response rating", 0],
  ["CCC(CC)n1c(=O)on(C(=O)N(c2ccc(F)cc2)C(C)C)c1=O", "Redroot pigweed plant response rating", 3],
  ["CC(C)N(C(=O)n1oc(=O)n(N2CCOCC2)c1=O)c1ccc(F)cc1", "Redroot pigweed plant response rating", 0]
]}

----------
System: pigweed
Assay: Test B pre/postemergence pigweed
Type: in vivo, Amaranthus retroflexus
Settings: Postemergence, Rate 250 g/ha; scale 0 to 10, 0 no effect, 10 complete control
Item-by-item account of Redroot pigweed plant response rating
quantity.kind: Redroot pigweed plant response rating

{"columns": ["compound.structure", "quantity.kind", "result"],
 "data": [
  ["CCN(CC)C(=O)n1oc(=O)n(-c2ccc(F)cc2)c1=O", "Redroot pigweed plant response rating", 0],
  ["Cc1nn(C)c(C)c1-n1c(=O)on(C(=O)N(c2ccc(F)cc2F)C(C)C)c1=O", "Redroot pigweed plant response rating", 0],
  ["Cc1ccccc1Cn1c(=O)on(C(=O)N(C)c2ccccc2)c1=O", "Redroot pigweed plant response rating", 0],
  ["Cc1ccccc1-n1c(=O)on(C(=O)N(c2ccc(F)cc2)C2CC2)c1=O", "Redroot pigweed plant response rating", 0],
  ["CC(C)N(C(=O)n1oc(=O)n(-c2ccccc2OC(F)(F)F)c1=O)c1ccc(F)cc1", "Redroot pigweed plant response rating", 3]
]}

----------
Test system: corn
Assay: Test B pre/postemergence corn
Format: in vivo, Zea mays
Settings: Preemergence, Rate 125 g/ha; scale 0 to 10, 0 is no effect, 10 is complete control
quantity.kind: Corn plant response rating

{"columns": ["compound.structure", "result"],
 "data": [
  ["CC(=O)OCCCCn1c(=O)on(C(=O)N(c2ccc(Cl)cc2)C(C)C)c1=O", 0],
  ["CCOC(=O)C=C(Cn1c(=O)on(C(=O)N(c2ccc(Cl)cc2)C(C)C)c1=O)OCC", 0],
  ["COCn1c(=O)on(C(=O)N(c2ccc(F)cc2F)C(C)C)c1=O", 5],
  ["CC(C)N(C(=O)n1oc(=O)n(CCc2ccccc2)c1=O)c1ccccc1", 0],
  ["CC(C)N(C(=O)n1oc(=O)n(CC2=NCCCO2)c1=O)c1ccccc1", 0]
]}

----------
System: cocklebur
Assay: Test B pre/postemergence cocklebur
Format: in vivo, Xanthium strumarium
Details: Rate 500 g/ha, Postemergence; scale 0 to 10
quantity.kind: Cocklebur plant response rating

{"columns": ["compound.structure", "quantity.kind", "result"],
 "data": [
  ["Cc1ccccc1-n1c(=O)on(C(=O)N(c2c(F)cccc2F)C(C)C)c1=O", "Cocklebur plant response rating", 3],
  ["CC(C)N(C(=O)n1oc(=O)n(Cc2ccccc2Cl)c1=O)C1=CCCCC1", "Cocklebur plant response rating", 0],
  ["Cc1nc(C)c(-n2c(=O)on(C(=O)N(c3ccc(F)cc3)C(C)C)c2=O)s1", "Cocklebur plant response rating", 0],
  ["Cc1nsc(C)c1-n1c(=O)on(C(=O)N(c2ccc(F)cc2F)C(C)C)c1=O", "Cocklebur plant response rating", 0]
]}

----------
Tested on: pigweed
Test: Test B pre/postemergence pigweed
Type: in vivo, Amaranthus retroflexus
Details: Postemergence, Rate 62 g/ha; scale of 0 to 10, 0 is no effect, 10 is complete control
Listed here are compounds together with their documented Redroot pigweed plant response rating.
quantity.kind: Redroot pigweed plant response rating

{"columns": ["compound.structure", "result"],
 "data": [
  ["CCN(CC)C(=O)Cn1c(=O)on(C(=O)N(c2ccc(F)cc2F)C(C)C)c1=O", 1],
  ["CC(=O)OCCCCn1c(=O)on(C(=O)N(c2ccc(F)cc2F)C(C)C)c1=O", 0],
  ["CCC(=O)Cn1c(=O)on(C(=O)N(c2ccc(F)cc2F)C(C)C)c1=O", 0],
  ["CC(C)N(C(=O)n1oc(=O)n(C[Si](C)(C)C)c1=O)c1ccc(Cl)cc1", 0],
  ["CC(C)N(C(=O)n1oc(=O)n(CCC2OCCCO2)c1=O)c1ccc(Cl)cc1", 0]
]}

----------
Tested on: velvetleaf
Assay: Test B pre/postemergence velvetleaf
Format: in vivo, Abutilon theophrasti
Conditions: Postemergence, Rate 250 g/ha; scale 0 to 10, 0 is no effect, 10 is complete control

{"columns": ["compound", "Plant response rating, Velvetleaf"],
 "data": [
  ["CC(C)N(C(=O)n1oc(=O)n(CC#N)c1=O)c1ccc(F)cc1", 2],
  ["CC(C)N(C(=O)n1oc(=O)n(CC2CCOC2)c1=O)c1ccc(F)cc1 (centres unmarked)", 2],
  ["CC(C)N(C(=O)n1oc(=O)n(N2CCOCC2)c1=O)c1ccc(F)cc1", 0],
  ["CC1CC1n1c(=O)on(C(=O)N(c2ccc(F)cc2F)C(C)C)c1=O (centres unmarked)", 2],
  ["CC1CC1n1c(=O)on(C(=O)N(c2ccc(F)cc2)C(C)C)c1=O (centres unmarked)", 2]
]}

----------
Entries and their Cocklebur plant response rating values follow.
System: cocklebur
Test: Test B pre/postemergence cocklebur
Assay type: in vivo, Xanthium strumarium
Conditions: Postemergence, Rate 250 g/ha; scale 0 to 10, 0 no effect, 10 complete control

{"columns": ["compound.structure", "Cocklebur plant response rating"],
 "data": [
  ["CC(C)N(C(=O)n1oc(=O)n(-c2ccccc2OC(F)(F)F)c1=O)c1ccc(F)cc1", 0],
  ["Cc1nn(C)c(C)c1-n1c(=O)on(C(=O)N(c2ccc(F)cc2F)C(C)C)c1=O", 3],
  ["CN(C(=O)n1oc(=O)n(Cc2cccs2)c1=O)c1ccccc1", 1],
  ["COc1cccc(C)c1-n1c(=O)on(C(=O)N(c2ccccc2)C(C)C)c1=O", 0],
  ["COc1ccc(-n2c(=O)on(C(=O)N(c3ccc(F)cc3)C(C)C)c2=O)cc1", 5],
  ["CCN(C(=O)n1oc(=O)n(-c2ccc(F)cc2F)c1=O)C1CCCCC1", 0],
  ["Cc1ccccc1-n1c(=O)on(C(=O)N(c2ccc(F)cc2)C2CC2)c1=O", 0]
]}

----------
Tested on: wild oat
Assay: Test B pre/postemergence wild oat
Format: in vivo, Avena fatua
Settings: Rate 250 g/ha, Postemergence; scale of 0 to 10 where 0 is no effect and 10 is complete control
As shown below, each of these molecules has a reported Plant response rating, Wild oats value.
quantity.kind: Plant response rating, Wild oats

{"columns": ["compound.structure", "quantity.kind", "result"],
 "data": [
  ["C=CCCCn1c(=O)on(C(=O)N(c2ccccc2)C(C)C)c1=O", "Plant response rating, Wild oats", 0],
  ["CC(C)N(C(=O)n1oc(=O)n(CCC2OCCCO2)c1=O)c1ccc(Cl)cc1", "Plant response rating, Wild oats", 0],
  ["CCCCCn1c(=O)on(C(=O)N(c2ccccc2)C(C)C)c1=O", "Plant response rating, Wild oats", 0],
  ["CC(C)N(C(=O)n1oc(=O)n(CCCCF)c1=O)c1ccc(F)cc1", "Plant response rating, Wild oats", 3],
  ["CC(C)N(C(=O)n1oc(=O)n(Cc2nnsc2Cl)c1=O)c1ccc(F)cc1F", "Plant response rating, Wild oats", 0]
]}
